Origin of measurements: the supplement of paper PMC11061612

Parameter combination Emax: see the listing below.
Tested on: SW1417 (Colorectal Carcinoma)
Assay: combination Emax (second highest fraction inhibited in the dose matrix, 72 h); higher = more inhibition; extreme values may be limits of the assay
Just the number, please.

{"compound": "Cc1c2c(nn1C)CSCc1cc(n(C)n1)CSc1cc(c3ccccc3c1)OCCCc1c(C(=O)O)n(C)c3c-2c(Cl)ccc13 [AZD5991] + Nc1ccn([C@@H]2O[C@H](CO)[C@@H](O)C2(F)F)c(=O)n1 [Gemcitabine] (first compound max 1 µM, 7x7, partner max 0.3 µM)", "endpoint_result": 0.332}

Now turn to the next compound.
Task: Entry under review: Cc1c2c(nn1C)CSCc1cc(n(C)n1)CSc1cc(c3ccccc3c1)OCCCc1c(C(=O)O)n(C)c3c-2c(Cl)ccc13 [AZD5991] + CC1(C)CCC(CN2CCN(c3ccc(C(=O)NS(=O)(=O)c4ccc(NCC5CCOCC5)c([N+](=O)[O-])c4)c(Oc4cnc5[nH]ccc5c4)c3)CC2)=C(c2ccc(Cl)cc2)C1 [Venetoclax] (first compound max 1 µM, 7x7, partner max 1 µM) . Reported combination Emax?
Result: 0.191

----------
Tested on: KARPAS-45 (T-Lymphoblastic Leukemia)
Assay: Bliss excess, mean over the matrix (fraction); higher = more synergy
Parameter Bliss excess: see the listing below.
Just the number, please.

{"compound": "COc1nnc2ccc(N3CCC(c4ccc(OCCN5CCN(C)C(=O)[C@H]5C)cc4)CC3)nn12 [AZD5153] + C[C@@H]1COCCN1C2=NC(=NC(=C2)C3(CC3)[S@](=N)(=O)C)C4=C5C=CNC5=NC=C4 [AZD6738] (first compound max 1 µM, 7x7, partner max 10 µM)", "Bliss excess": -0.0191}

Now turn to the next compound.
Task: Entry under review: CC(=O)Nc1cccc(-n2c(=O)n(C3CC3)c(=O)c3c(Nc4ccc(I)cc4F)n(C)c(=O)c(C)c32)c1 [Trametinib] + Cc1nc(-c2cn3c(n2)-c2ccc(-c4cnn(C(C)(C)C(N)=O)c4)cc2OCC3)n(C(C)C)n1 [Taselisib] (first compound max 1 µM, 7x7, partner max 10 µM) . Reported Bliss excess?
Result: 0.112

----------
Tested on: WIL2-NS (Non-Cancerous)
Assay: Bliss excess, mean over the matrix (fraction); higher = more synergy
Decision: Bliss excess compared against 0.01; not below it gives yes (1), below it gives no (0).

Answered cases to consult:
{"compound": "CC1(C)CCC(CN2CCN(c3ccc(C(=O)NS(=O)(=O)c4ccc(NCC5CCOCC5)c([N+](=O)[O-])c4)c(Oc4cnc5[nH]ccc5c4)c3)CC2)=C(c2ccc(Cl)cc2)C1 [Venetoclax] + Cc1cc2ncnn2cc1Nc1ncc2c(n1)n(C1CCOCC1)c(=O)n2C [AZD7648] (first compound max 1 µM, 7x7, partner max 10 µM)", "tgt": "WIL2-NS (Non-Cancerous)", "group_label": "no (0)"}
{"compound": "CN(C)CCCOc1ccc(-c2ccc3ncc4c(c3c2)n(C2CCOCC2)c(=O)n4C)cn1 [AZD0156] + C=CCn1c(=O)c2cnc(Nc3ccc(N4CCN(C)CC4)cc3)nc2n1-c1cccc(C(C)(C)O)n1 [AZD1775] (first compound max 1 µM, partner max 1 µM)", "tgt": "WIL2-NS (Non-Cancerous)", "group_label": "yes (1)"}
{"compound": "CC1(C)CCC(CN2CCN(c3ccc(C(=O)NS(=O)(=O)c4ccc(NCC5CCOCC5)c([N+](=O)[O-])c4)c(Oc4cnc5[nH]ccc5c4)c3)CC2)=C(c2ccc(Cl)cc2)C1 [Venetoclax] + CCN(CCO)CCCOc1ccc2c(Nc3cc(CC(=O)Nc4cccc(F)c4)[nH]n3)ncnc2c1 [AZD2811] (first compound max 1 µM, 7x7, partner max 1 µM)", "tgt": "WIL2-NS (Non-Cancerous)", "group_label": "yes (1)"}
{"compound": "CN(CCO)CC[C@H](CSc1ccccc1)Nc1ccc(S(=O)(=O)NC(=O)c2ccc(N3CCC([C@@H](O)c4ccccc4-c4ccc(Cl)cc4)CC3)cc2)cc1S(=O)(=O)C(F)(F)F [AZD4320] + Nc1ccn([C@@H]2O[C@H](CO)[C@@H](O)C2(F)F)c(=O)n1 [Gemcitabine] (first compound max 1 µM, 7x7, partner max 0.3 µM)", "tgt": "WIL2-NS (Non-Cancerous)", "group_label": "yes (1)"}
{"compound": "O=C(c1cc(Cc2n[nH]c(=O)c3ccccc23)ccc1F)N1CCN(C(=O)C2CC2)CC1 [Olaparib] + CN(CC[C@H](CSC1=CC=CC=C1)NC2=C(C=C(C=C2)S(=O)(=O)NC(=O)C3=CC=C(C=C3)N4CCC(CC4)[C@H](C5=CC=CC=C5C6=CC=C(C=C6)Cl)O)S(=O)(=O)C(F)(F)F)CCO [AZD4320] (first compound max 10 µM, 7x7, partner max 1 µM)", "tgt": "WIL2-NS (Non-Cancerous)", "group_label": "yes (1)"}

Task: Quick check, Bliss excess >= 0.01? CC1(C)CCC(CN2CCN(c3ccc(C(=O)NS(=O)(=O)c4ccc(NCC5CCOCC5)c([N+](=O)[O-])c4)c(Oc4cnc5[nH]ccc5c4)c3)CC2)=C(c2ccc(Cl)cc2)C1 [Venetoclax] + COc1cc(Nc2ncc3c(n2)-c2ccc(Cl)cc2C(c2c(F)cccc2OC)=NC3)ccc1C(=O)O [Alisertib] (first compound max 1 µM, 7x7, partner max 10 µM)
Result: no (0)

Task: Quick check, Bliss excess >= 0.01? CS(=O)(=O)CCNCc1ccc(-c2ccc3ncnc(Nc4ccc(OCc5cccc(F)c5)c(Cl)c4)c3c2)o1 [Lapatinib] + C[C@@H](Oc1cc(-c2cnn(C3CCNCC3)c2)cnc1N)c1c(Cl)ccc(F)c1Cl [Crizotinib] (first compound max 10 µM, 7x7, partner max 10 µM)
Result: no (0)

Task: Quick check, Bliss excess >= 0.01? Cc1cc2ncnn2cc1Nc1ncc2c(n1)n(C1CCOCC1)c(=O)n2C [AZD7648] + COc1cc([C@@H]2c3cc4c(cc3[C@@H](O[C@@H]3O[C@@H]5CO[C@@H](C)O[C@H]5[C@H](O)[C@H]3O)[C@H]3COC(=O)[C@H]23)OCO4)cc(OC)c1O [Etoposide] (first compound max 10 µM, 7x7, partner max 10 µM)
Result: yes (1)
